Cited source for all entries: patent US20170112760A1

METHOD_DESCRIPTION: Nanoparticle size and charge analysis (DLS, zeta potential, Malvern Zetasizer)
Type: physicochemical
TEST_CONTEXT: peptide/DNA nanoparticles, N:P10
Measured Charge (mV) by item
Respond with the bare value in mV.

Field: example entries. Status: answers known.
* REARLARALARALARLARALARALRACEA (amphipathic peptide sequence (Table 2)) [Peptide 4, H Removed and W replaced with R] | 12
* WEARLARALARALARELARALARALRACEA (amphipathic peptide sequence (Table 2)) [Peptide 3, H replaced with glutamic acid (E)] | 24
* REARLARALARALARLARALARALRAREA (amphipathic peptide sequence (Table 2)) [Peptide 5, H Removed and W replaced with R and C replaced with R] | 13
* WEARLARALARALARLARALARALRACEA (amphipathic peptide sequence (Table 2)) [Peptide 2, H removed] | 22

Alright, here's another sequence for you.
Ask: Return value of Charge (mV) for input REARLARALARALARELARALARALRAREA (amphipathic peptide sequence (Table 2)) [Peptide 6, H Replaced with E and W replaced with R and C replaced with R] , no commentary.
Reply: 6

---

System: PC-3 prostate cancer cells
METHOD_DESCRIPTION: Cell proliferation assay (manual cell counts), bisphosphonates and RALA/BP nanoparticles
TEST_CONTEXT: FIG. 51: 6 h treatment, 72 h incubation, mass ratio 10:1
MEASUREMENT_TYPE: pEC50
Here pEC50 is given on a logarithmic scale as minus log10 of the concentration in mol/L.

Ask: State pEC50 on PC-3 prostate cancer cells. Entry: NCCCC(O)(P(=O)(O)O)P(=O)(O)O [alendronate]
Reply: 4.00
